- test target: human NaV1.7 (Homo sapiens)
- Construct: permanently transfected with an expression vector containing the full-length cDNA coding for the desired human sodium channel α-subunit
- Sequence (Q15858 1-1977 isoform Q15858-3): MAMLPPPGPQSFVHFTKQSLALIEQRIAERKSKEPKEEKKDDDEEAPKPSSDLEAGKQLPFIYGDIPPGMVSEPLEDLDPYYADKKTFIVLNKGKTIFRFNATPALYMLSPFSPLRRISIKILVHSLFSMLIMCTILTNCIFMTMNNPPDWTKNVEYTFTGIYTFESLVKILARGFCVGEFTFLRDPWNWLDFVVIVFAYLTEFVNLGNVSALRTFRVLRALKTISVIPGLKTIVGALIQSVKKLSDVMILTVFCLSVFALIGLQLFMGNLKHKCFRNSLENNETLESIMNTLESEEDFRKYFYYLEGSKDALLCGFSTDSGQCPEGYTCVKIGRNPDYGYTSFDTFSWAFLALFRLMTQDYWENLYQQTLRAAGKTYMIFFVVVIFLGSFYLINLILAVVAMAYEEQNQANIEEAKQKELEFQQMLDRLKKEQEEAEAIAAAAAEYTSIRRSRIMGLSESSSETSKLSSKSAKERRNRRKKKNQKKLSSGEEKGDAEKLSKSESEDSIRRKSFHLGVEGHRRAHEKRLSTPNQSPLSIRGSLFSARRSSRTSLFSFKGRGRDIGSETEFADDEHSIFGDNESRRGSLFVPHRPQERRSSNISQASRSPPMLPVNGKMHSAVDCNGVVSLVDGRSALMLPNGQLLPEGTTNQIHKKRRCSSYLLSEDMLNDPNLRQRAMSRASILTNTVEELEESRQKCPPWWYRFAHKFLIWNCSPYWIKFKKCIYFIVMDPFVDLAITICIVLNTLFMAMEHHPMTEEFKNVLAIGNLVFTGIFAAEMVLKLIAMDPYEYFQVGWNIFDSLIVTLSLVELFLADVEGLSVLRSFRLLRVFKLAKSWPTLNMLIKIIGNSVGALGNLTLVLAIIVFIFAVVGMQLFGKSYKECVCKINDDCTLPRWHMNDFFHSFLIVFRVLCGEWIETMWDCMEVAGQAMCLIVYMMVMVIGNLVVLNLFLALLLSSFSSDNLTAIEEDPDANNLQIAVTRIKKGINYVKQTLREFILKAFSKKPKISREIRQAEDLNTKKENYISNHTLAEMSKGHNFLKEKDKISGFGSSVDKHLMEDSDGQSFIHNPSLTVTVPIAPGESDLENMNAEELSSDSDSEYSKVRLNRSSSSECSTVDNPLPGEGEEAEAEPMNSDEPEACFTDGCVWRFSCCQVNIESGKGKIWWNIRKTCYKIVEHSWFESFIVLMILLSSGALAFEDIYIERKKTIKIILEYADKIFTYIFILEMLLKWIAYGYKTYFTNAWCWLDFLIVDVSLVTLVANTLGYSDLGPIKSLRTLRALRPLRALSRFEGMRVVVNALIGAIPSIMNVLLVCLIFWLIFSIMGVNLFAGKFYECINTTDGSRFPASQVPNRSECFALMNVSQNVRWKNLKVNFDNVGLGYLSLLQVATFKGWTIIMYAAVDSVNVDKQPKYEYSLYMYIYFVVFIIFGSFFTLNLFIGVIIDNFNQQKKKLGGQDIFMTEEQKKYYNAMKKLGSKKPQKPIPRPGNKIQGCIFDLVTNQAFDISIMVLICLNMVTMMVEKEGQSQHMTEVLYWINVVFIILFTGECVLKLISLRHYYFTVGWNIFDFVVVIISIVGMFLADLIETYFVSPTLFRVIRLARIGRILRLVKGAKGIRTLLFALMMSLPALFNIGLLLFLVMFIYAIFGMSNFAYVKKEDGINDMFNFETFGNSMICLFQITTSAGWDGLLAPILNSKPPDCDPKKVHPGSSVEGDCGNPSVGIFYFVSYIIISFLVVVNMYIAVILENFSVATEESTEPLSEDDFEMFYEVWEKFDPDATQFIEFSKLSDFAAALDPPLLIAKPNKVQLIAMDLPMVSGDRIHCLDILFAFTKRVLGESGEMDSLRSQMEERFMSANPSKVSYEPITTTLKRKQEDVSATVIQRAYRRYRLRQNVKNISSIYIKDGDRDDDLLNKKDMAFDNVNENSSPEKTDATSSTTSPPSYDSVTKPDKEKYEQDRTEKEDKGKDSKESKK
- Sequence (Q07699 19-218 partner): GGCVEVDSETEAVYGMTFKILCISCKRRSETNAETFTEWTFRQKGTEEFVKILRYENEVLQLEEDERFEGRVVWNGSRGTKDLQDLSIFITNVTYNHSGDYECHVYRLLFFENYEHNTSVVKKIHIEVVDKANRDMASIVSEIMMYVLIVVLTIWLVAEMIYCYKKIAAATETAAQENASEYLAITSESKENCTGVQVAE
- protocol text: Patch voltage clamp electrophysiology assay (EP), NaV1.7
- test context: HEK-293 cells stably expressing NaV1.7 with β1 subunit; whole-cell patch clamp, membrane potential −60 mV (inactivated state)
observable: pIC50
Note on units: pIC50 is unitless, being -log10 of a concentration expressed in mol/L.

Lookup result for O=C(N[C@H](C(=O)O)C1CCC1)c1cc(C2CC2)c(OCC23CC4CC(CC(C4)C2)C3)cc1F [Example 170] ; measured pIC50: 5.42

Record summary for COC[C@H](c1cc(Cl)cc(Cl)c1)N1CCC(COc2cc(F)c(C(=O)N3C[C@H](F)C[C@H]3C(=O)O)cc2C2CC2)CC1 [Example 130] : reported pIC50 = 6.80

Looking up O=C(O)C1=CCCN1C(=O)c1cc(C2CC2)c(OCC23CC4CC(CC(C4)C2)C3)cc1F [Example 167] , I found its pIC50 recorded as 6.18

Entry O=C(O)[C@@H]1C[C@@H](F)CN1C(=O)c1cc(C2CC2)c(OCCC2CCN(Cc3cc(Cl)cc(Cl)c3)CC2)cc1F [Example 94] — recorded pIC50 = 6.22

Per the records, this molecule ( CC1(C)[C@H]2CC[C@H](COc3cc(F)c(C(=O)N4CCC[C@H]4C(=O)O)cc3C3CC3)[C@@H]1C2 [Example 90] ) has pIC50 equal to 6.80

Measured pIC50 of CC1(C)SCN(C(=O)c2cc(C3CC3)c(OCC34CC5CC(CC(C5)C3)C4)cc2F)[C@@H]1C(=O)O [Example 155] : 6.05

# pIC50 of O=C(N[C@H](C(=O)O)C1CC1)c1cc(C2CC2)c(OCC2CCN(C(c3cc(Cl)cc(Cl)c3)C(F)(F)F)CC2)cc1F (some centres unmarked) [Example 53] = 5.70

The molecule listed as C[C@H](c1cc(Cl)cc(Cl)c1)N1CCC(C#N)(COc2cc(F)c(C(=O)N3C[C@H](F)C[C@H]3C(=O)O)cc2C2CC2)CC1 (single isomer, unassigned) [Example 126a] has a reported pIC50 of 5.64

Looking up C[C@H]1OCN(C(=O)c2cc(C3CC3)c(OCC3CCN([C@H](c4cc(Cl)cc(Cl)c4)C(F)(F)F)CC3)cc2F)[C@@H]1C(=O)O (single isomer, unassigned) [Example 138a] , I see its pIC50 listed as 6.52

Value of pIC50 reported for the molecule O=C(c1cc(C2CC2)c(OCC23CC4CC(CC(C4)C2)C3)cc1F)N1CCC[C@H]1c1nnn[nH]1 [Example 54] is 6.21

pIC50 reported for this molecule O=C(O)[C@@H]1CCN1C(=O)c1cc(C2CC2)c(OCC23CC4CC(CC(C4)C2)C3)cc1F [Example 86] : 5.72

Documented pIC50 of C[C@H]1OCN(C(=O)c2cc(C3CC3)c(OCC34CC5CC(CC(C5)C3)C4)cc2F)[C@@H]1C(=O)O [Example 162] : 7.03

Record O=C(O)[C@@H]1C[C@H](C(F)(F)F)CN1C(=O)c1cc(C2CC2)c(OCC23CC4CC(CC(C4)C2)C3)cc1F [Example 211] , field pIC50: 5.17

According to the records, this molecule O=C(O)[C@@H]1CCCN1C(=O)c1cc(C2CC2)c(COc2cc(Cl)cc(Cl)c2)s1 [Example 134] displays pIC50 of 6.20

Entry source: patent US10125098B2
